target: TRPV4 channel receptors (Homo sapiens); construct: obtained using this method in human articular chondrocytes; endogenous in cells; assay: Ca2+ influx through TRPV4 channel receptors, Fura-2 fluorescence on FlexStation, human articular chondrocytes; settings: Fura-2, FlexStation
Sequence (Q9HBA0 whole entry): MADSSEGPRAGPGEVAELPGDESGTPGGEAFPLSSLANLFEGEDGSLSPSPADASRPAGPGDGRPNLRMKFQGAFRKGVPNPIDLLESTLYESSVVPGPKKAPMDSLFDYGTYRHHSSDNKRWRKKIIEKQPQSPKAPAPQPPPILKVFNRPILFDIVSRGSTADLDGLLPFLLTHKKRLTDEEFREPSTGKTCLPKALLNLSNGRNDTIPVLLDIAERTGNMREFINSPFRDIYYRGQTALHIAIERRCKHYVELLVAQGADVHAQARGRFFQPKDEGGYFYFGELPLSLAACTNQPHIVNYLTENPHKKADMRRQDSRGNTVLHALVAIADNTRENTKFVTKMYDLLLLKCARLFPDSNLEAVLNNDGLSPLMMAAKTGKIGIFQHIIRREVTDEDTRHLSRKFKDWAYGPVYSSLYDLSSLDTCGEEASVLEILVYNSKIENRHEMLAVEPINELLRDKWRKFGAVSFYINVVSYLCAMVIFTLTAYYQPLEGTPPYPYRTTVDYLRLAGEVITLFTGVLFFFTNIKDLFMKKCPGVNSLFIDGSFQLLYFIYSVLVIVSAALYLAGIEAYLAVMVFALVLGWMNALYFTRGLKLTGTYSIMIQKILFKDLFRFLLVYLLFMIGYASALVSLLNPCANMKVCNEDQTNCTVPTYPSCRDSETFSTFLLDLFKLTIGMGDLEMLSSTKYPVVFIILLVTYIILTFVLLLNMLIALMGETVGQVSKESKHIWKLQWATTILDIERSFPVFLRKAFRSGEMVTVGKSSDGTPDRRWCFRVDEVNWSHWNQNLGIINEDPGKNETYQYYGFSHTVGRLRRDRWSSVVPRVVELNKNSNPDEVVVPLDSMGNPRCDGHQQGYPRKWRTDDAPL
pEC50: −log10 of the molar value.
# key: entry, value: pEC50

In: Note pEC50 for the molecule shown: "CC(C)C[C@H](NC(=O)c1nc2ccccc2s1)C(=O)NCCCCNS(=O)(=O)c1ccc(F)cc1Cl"
Out: 5.00 to 6.00

In: Note pEC50 for the molecule shown: "Cc1c(C(=O)N[C@@H](CC(C)C)C(=O)NCCCCNS(=O)(=O)c2ccc(Cl)cc2Cl)oc2cccnc12"
Out: 6.00 to 7.00

In: Note pEC50 for the molecule shown: "CC(C)C[C@H](NC(=O)c1cc2ccccc2s1)C(=O)NCCCCNS(=O)(=O)c1ccc(Br)cc1Cl"
Out: 7.05 to 7.52

Hey, just so you know, these numbers are from patent US20090105259A1.
